# assayName: Micro-PET scan of brain uptake of ^11C-labelled compound in SAMP8 model mice and control mice
# Type: in vivo
# testConditions: mouse, cerebral cortex, other: injected (kind of injection not stated), 31 μCi; normal control mice, 5 min after injection; read-out: Cerebral cortex uptake of radiopharmaceuticals, Control mice
observable: tissue uptake at 5 min (%ID/g)
Form entry: value (%ID/g) — number only.

## Task Quick one: give measured tissue uptake at 5 min for `CNc1ccc(-c2nc3ccc(B(O)O)cc3s2)cc1`
## Result 1.61

====

# assayName: Micro-PET scan of brain uptake of ^11C-labelled compound in SAMP8 model mice and control mice
# Assay type: in vivo
# testConditions: mouse, hippocampus, other: injection (kind of injection not stated), 31 μCi; normal control mice, 5 min after injection; read-out: hippocampus uptake of radiopharmaceuticals, Control mice
observable: tissue uptake at 5 min (%ID/g)
Form entry: value (%ID/g) — number only.

## Task Quick one: give measured tissue uptake at 5 min for `CNc1ccc(-c2nc3ccc(B(O)O)cc3s2)cc1`
## Result 1.8

====

# assayName: Micro-PET scan of brain uptake of ^11C-labelled compound in SAMP8 model mice and control mice
# Format: in vivo
# testConditions: mouse, cerebral cortex, other: injected (kind of injection not stated), 31 μCi; SAMP8 model mice, 15 min after injection; read-out: Cerebral cortex uptake of radiopharmaceuticals, Model mice
observable: tissue uptake at 15 min (%ID/g)
Form entry: value (%ID/g) — number only.

## Task Quick one: give measured tissue uptake at 15 min for `CNc1ccc(-c2nc3ccc(B(O)O)cc3s2)cc1`
## Result 2.88
